Data credit: the supplement of paper PMC10567573

B1: NEK8 (parent)
chain: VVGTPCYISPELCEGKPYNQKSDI

- Variants of: B1
- Experiment: protein stability index of a GFP-peptide fusion (GPS, HEK-293T) (PSI 1-6); higher = more stable;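 further: lentivirally expressed fusions sorted by FACS into six bins by GFP to DsRed ratio, PSI derived from sequencing read proportions per bin multiplied by bin number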
- Conditions: c terminus: a fixed tail appended
Entries and their protein stability index values follow.
Please respond with just the number, no unit label.

> print(dat)
    var  result.number
1  Q20F           1.85
2  S22G           2.67
3  N19K           2.98
4  K21E           2.48
5  I24N           3.35

Could you now consider this next variant?
Please indicate protein stability index recorded for Q20M
2.22
